- target-or-test-system: KRas-mediated phosphorylation of ERK in MKN1 cells (Homo sapiens, UniProt P01116)
- Construct: pERK HTRF read-out
- Sequence (P01116 1-188 isoform P01116-2): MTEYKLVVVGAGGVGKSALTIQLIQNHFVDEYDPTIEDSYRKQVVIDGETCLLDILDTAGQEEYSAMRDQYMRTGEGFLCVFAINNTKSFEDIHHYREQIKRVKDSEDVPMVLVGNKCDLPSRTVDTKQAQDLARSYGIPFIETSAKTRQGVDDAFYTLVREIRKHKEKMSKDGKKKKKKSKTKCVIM
- method-notes: Inhibition of KRas-mediated phosphorylation of ERK (HTRF), MKN1 cells
- Type: cell-based
- measurement-parameters: MKN1 cells (KRas WT); HTRF pERK; 3 h incubation
# strict inequality: IC50 < 400 nM yields yes, everything else yields no

>  <compound>
CCc1c(F)ccc2cc(O)cc(-c3ncc4c(N(C)CCC(C)C(=O)N(C)C(C)=O)nc(OC[C@@]56CCCN5C[C@H](F)C6)nc4c3F)c12 (stereo partly shown)

>  <label-class>
no

$$$$
>  <compound>
COCc1ccn(C(=O)C2CCCN(c3nc(OC[C@@]45CCCN4C[C@H](F)C5)nc4c(F)c(-c5ccc(F)c6sc(N)c(C#N)c56)c(Cl)cc34)CC2)n1 (stereo partly shown)

>  <label-class>
yes

$$$$
>  <compound>
CC(=O)N(C)C(=O)C1CCCN(c2nc(OC[C@@]34CCCN3C[C@H](F)C4)nc3c(F)c(-c4ccc(F)c5sc(N)c(C#N)c45)c(Cl)cc23)CC1 (stereo partly shown)

>  <label-class>
yes

$$$$
>  <compound>
CCc1c(F)ccc2cc(O)cc(-c3ncc4c(N5CCN(C(=O)n6ccc(C)n6)C(C)C5)nc(OC[C@@]56CCCN5C[C@H](F)C6)nc4c3F)c12 (stereo partly shown)

>  <label-class>
yes

$$$$

# check: IC50 < 400 nM for `CCc1c(F)ccc2cc(O)cc(-c3ncc4c(N5CCC(C(=O)n6cc(C)cn6)CC5)nc(OC[C@@]56CCCN5C[C@H](F)C6)nc4c3F)c12`
no

# check: IC50 < 400 nM for CN(CCN(C)c1nc(OC[C@@]23CCCN2C[C@H](F)C3)nc2c(F)c(-c3ccc(F)c4sc(N)c(C#N)c34)c(Cl)cc12)C(=O)n1ccnn1 (single isomer, unassigned)
yes

# check: IC50 < 400 nM for `CCc1c(F)ccc2cc(O)cc(-c3ncc4c(N(CCCC(=O)n5ccc(C)n5)C5CC5)nc(OC[C@@]56CCCN5C[C@H](F)C6)nc4c3F)c12`
yes

# check: IC50 < 400 nM for `N#Cc1c(N)sc2c(F)ccc(-c3c(Cl)cc4c(N5CCC(C(=O)n6cccn6)CC5)nc(OC[C@@]56CCCN5C[C@H](F)C6)nc4c3F)c12`
yes

====

- target-or-test-system: KRas-mediated phosphorylation of ERK in MKN1 cells (Homo sapiens, UniProt P01116)
- Construct: pERK HTRF read-out
- method-notes: Inhibition of KRas-mediated phosphorylation of ERK (HTRF), MKN1 cells
- Format: cell-based
- measurement-parameters: MKN1 cells (KRas WT); HTRF pERK; 3 h incubation
# class assignment by measured IC50: lower range: < 40 nM; middle range: ≥ 40 nM and < 900 nM; upper range: ≥ 900 nM

Some solved cases for reference:
>  <compound>
CON(C)C(=O)CCCN(C)c1nc(OC[C@@]23CCCN2C[C@H](F)C3)nc2c(F)c(-c3ccc(F)c4sc(N)c(C#N)c34)c(Cl)cc12

>  <label-class>
middle range

$$$$
>  <compound>
CC(=O)N(C)C(=O)C1CCN(c2nc(OC[C@@]34CCCN3C[C@H](F)C4)nc3c(F)c(-c4ccc(F)c5sc(N)c(C#N)c45)c(Cl)cc23)CC1 [Example 253]

>  <label-class>
lower range

$$$$
>  <compound>
Cc1ccn(C(=O)C2CCCN(c3nc(OC[C@@]45CCCN4C[C@H](F)C5)nc4c(F)c(-c5nc(N)ccc5C)c(Cl)cc34)CC2)n1 (some centres unmarked)

>  <label-class>
upper range

$$$$
>  <compound>
CCc1c(F)ccc2cc(O)cc(-c3ncc4c(N5CC6CCC(C(=O)n7ccc(C)n7)C6C5)nc(OC[C@@]56CCCN5C[C@H](F)C6)nc4c3F)c12 (some centres unmarked)

>  <label-class>
upper range

$$$$
>  <compound>
Cc1ccn(C(=O)C2CCCN(c3nc(OCC4(CN(C)C)CC4)nc4c(F)c(-c5ccc(F)c6sc(N)c(C#N)c56)c(Cl)cc34)CC2)n1 (centres unmarked)

>  <label-class>
middle range

$$$$
>  <compound>
CC(=O)N(C)C(=O)[C@H]1CCCN(c2nc(OC[C@@]34CCCN3C[C@H](F)C4)nc3c(F)c(-c4ccc(F)c5sc(N)c(C#N)c45)c(Cl)cc23)CC1 (atropisomer, axis not shown; (aS))

>  <label-class>
lower range

$$$$
>  <compound>
Cc1ccn(C(=O)CCCCN(C)c2nc(OC[C@@]34CCCN3C[C@H](F)C4)nc3c(F)c(-c4ccc(F)c5sc(N)c(C#N)c45)c(Cl)cc23)n1

>  <label-class>
middle range

$$$$
>  <compound>
CN1CC2(CCN(c3nc(OC[C@@]45CCCN4C[C@H](F)C5)nc4c(F)c(-c5ccc(F)c6sc(N)c(C#N)c56)c(Cl)cc34)CC2)C1=O

>  <label-class>
lower range

$$$$
>  <compound>
CCc1c(F)ccc2cc(O)cc(-c3ncc4c(N5CCCC(C(=O)N(C)C(C)=O)CC5)nc(OC[C@@]56CCCN5C[C@H](F)C6)nc4c3F)c12 (some centres unmarked)

>  <label-class>
upper range

$$$$

Category of `CCc1c(F)ccc2cc(O)cc(-c3ncc4c(N5CCC(C(=O)n6ccc(C(C)C)n6)CC5)nc(OC[C@@]56CCCN5C[C@H](F)C6)nc4c3F)c12` :
upper range
